Test system: ragweed
Assay: Test C postemergence
Format: in vivo, Ambrosia elatior
Settings: Postemergence, 31 g ai/ha; scale 0 to 100 (0 no effect, 100 complete control); 13 to 15 days
# maps each entry to its Plant response rating, Ragweed

querySmiles: Clc1cnc(Oc2cccc(Br)c2-n2cc(Br)cn2)nc1
Plant response rating, Ragweed: 5
--
querySmiles: N#Cc1cccc(Oc2ncc(Cl)cn2)c1-n1cnc(Br)c1
Plant response rating, Ragweed: 40
--
querySmiles: N#Cc1cccc(Oc2ncc(F)cn2)c1-n1cc(I)cn1
Plant response rating, Ragweed: 50
--
querySmiles: N#Cc1cccc(Oc2ncc(F)cn2)c1-n1cc(Cl)cn1
Plant response rating, Ragweed: 30
--
querySmiles: CCOc1cnn(-c2c(C#N)cccc2Oc2ncc(Cl)cn2)c1
Plant response rating, Ragweed: 40

----------
Tested on: galium
Assay: Test C preemergence
Type: in vivo, Galium aparine
Conditions: 16 g ai/ha, preemergence; scale 0 to 100 (0 no effect, 100 complete control)
Hi, to clarify the labels: criterion met covers Galium plant response rating from 70 upward, criterion not met covers anything below 70.

querySmiles: FCc1cccc(Oc2ncc(Cl)cn2)c1-n1cc(Br)cn1
labelClass: criterion not met

querySmiles: CCOc1cnn(-c2c(C#N)cccc2Oc2ncc(F)cn2)c1
labelClass: criterion not met

querySmiles: Fc1cccc(Oc2ncc(Cl)cn2)c1-n1cc(I)cn1
labelClass: criterion met

querySmiles: N#Cc1cn(-c2c(Br)cccc2Oc2ncc(Cl)cn2)nn1
labelClass: criterion not met

querySmiles: FC(F)(F)c1cnn(-c2c(Cl)cccc2Oc2ncc(Cl)cn2)c1
labelClass: criterion met

querySmiles: Clc1cnc(Oc2cccc(Br)c2-n2cc(Br)nn2)nc1
labelClass: criterion not met

querySmiles: FCc1cccc(Oc2ncc(Cl)cn2)c1-n1cc(Cl)cn1
labelClass: criterion not met

querySmiles: N#Cc1cccc(Oc2ncc(F)cn2)c1-n1cc(I)cn1
labelClass: criterion met

querySmiles: CCOc1cnn(-c2ccccc2Oc2ncc(Cl)cn2)c1
labelClass: criterion not met

----------
Tested on: goosegrass
Experiment: Test E preemergence
Format: in vivo, Eleusine indica
Conditions: 62 g ai/ha, scale 0 to 100 (0 no effect, 100 complete control)
# if measured Goosegrass plant response rating < 50: true (1)  # else: false (0)

compound: FCc1cccc(Oc2ncc(Cl)cn2)c1-n1cc(Cl)cn1 [Compound 250]
labelClass: true (1)

compound: N#Cc1cccc(Oc2ncc(F)cn2)c1-n1cc(Cl)cn1 [Compound 73]
labelClass: false (0)

compound: Fc1cccc(Oc2ncc(Cl)cn2)c1-n1cc(I)cn1 [Compound 179]
labelClass: true (1)

compound: FC(F)(F)c1cnn(-c2ccccc2Oc2ncc(Br)cn2)c1 [Compound 18]
labelClass: true (1)

compound: N#Cc1cnn(-c2c(C#N)cccc2Oc2ncc(F)cn2)c1 [Compound 111]
labelClass: true (1)

compound: FC(F)c1cccc(Oc2ncc(Cl)cn2)c1-n1cc(Br)cn1 [Compound 194]
labelClass: false (0)

----------
Test system: pigweed
Assay: Test A preemergence
Type: in vivo, Amaranthus retroflexus
Details: 125 g ai/ha, 0 to 100 scale where 0 is no effect and 100 is complete control
measuredMetric: Plant response rating, Pigweed

querySmiles: COc1cnn(-c2c(C#N)cccc2Oc2ncc(Cl)cn2)c1
measuredMetric: Plant response rating, Pigweed
reportedValue: 90
--
querySmiles: CC(C)Oc1cnn(-c2c(Cl)cccc2Oc2ncc(Cl)cn2)c1
measuredMetric: Plant response rating, Pigweed
reportedValue: 0
--
querySmiles: Fc1cnc(Oc2cccc(F)c2-n2cc(OCC(F)(F)F)cn2)nc1
measuredMetric: Plant response rating, Pigweed
reportedValue: 100
--
querySmiles: FCc1cccc(Oc2ncc(Cl)cn2)c1-n1cc(C(F)(F)F)cn1
measuredMetric: Plant response rating, Pigweed
reportedValue: 100
--
querySmiles: Clc1cnc(Oc2ccccc2-n2cnc(Br)n2)nc1
measuredMetric: Plant response rating, Pigweed
reportedValue: 20
--
querySmiles: O=Cc1cccc(Oc2ncc(Br)cn2)c1-n1cc(C(F)(F)F)cn1
measuredMetric: Plant response rating, Pigweed
reportedValue: 90
--
querySmiles: N#Cc1cccc(Oc2ncc(I)cn2)c1-n1cc(Cl)cn1
measuredMetric: Plant response rating, Pigweed
reportedValue: 100
